tested on: NCI-H510 multicellular tumor spheroid growth, % test/control; experiment: Anticancer human tumor NCI-H510 cell line growth inhibition [Asc]; conditions: second compound 0.316 µM; first compound 1 µM; stronger effect = lower value;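 note: spheroids exposed to agents for 7 days; 100% = DMSO vehicle control wells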

| Compound | Measurement units | viability, T/C |
| --- | --- | --- |
| O=C(c1ccc(F)c(F)c1Nc1ccc(I)cc1F)N1CC(O)([C@@H]2CCCCN2)C1 + Cc1c(S(C)(=O)=O)c(-c2cc(F)cc(N3CCN(c4ccc(NS(=O)(=O)c5ccc(NC(CCN6CCC(C(=O)OCCCP(=O)(O)O)CC6)CSc6ccccc6)c(S(=O)(=O)C(F)(F)F)c5)cc4)CC3)c2)c(-c2ccc(Cl)cc2)n1C(C)C | % | 83 |
| CCN1CCN(Cc2ccc(Nc3ncc(F)c(-c4cc(F)c5nc(C)n(C(C)C)c5c4)n3)nc2)CC1 + CNC(C)C(=O)NC1CN(S(=O)(=O)c2cccc(S(=O)(=O)N3CCC4CCC(C(=O)NC(c5ccccc5)c5ccccc5)N4C(=O)C(NC(=O)C(C)NC)C3)c2)CCC2CCC(C(=O)NC(c3ccccc3)c3ccccc3)N2C1=O | % | 128 |
